Assay: Tissue distribution of TET after a single i.t. administration in normal and LPS-treated mice
Conditions: BALB/c, mouse, brain, inhaled or intranasal, 15 mg/kg, AUC(0-∞), LPS-treated mice; 15 mg/kg i.t.
reported-metric: AUC(0-inf) (µg·h/mL)
Return type: number; implicit unit µg·h/mL.

Q. For the compound COc1ccc2cc1Oc1ccc(cc1)C[C@H]1c3cc(c(OC)cc3CCN1C)Oc1c(OC)c(OC)cc3c1[C@H](C2)N(C)CC3 [TET, Tetrandrine] , what AUC(0-inf) is on record?
A. 179

---

Assay: Tissue distribution of TET after a single i.t. administration in normal and LPS-treated mice
Details: BALB/c, mouse, stomach, inhaled or intranasal, 15 mg/kg, t1/2, normal mice; 15 mg/kg i.t.
reported-metric: half-life
The answer should read as a number with its unit following.

Q. For the compound COc1ccc2cc1Oc1ccc(cc1)C[C@H]1c3cc(c(OC)cc3CCN1C)Oc1c(OC)c(OC)cc3c1[C@H](C2)N(C)CC3 [TET, Tetrandrine] , what half-life is on record?
A. 64 h

---

Assay: Tissue distribution of TET after a single i.t. administration in normal and LPS-treated mice
Settings: BALB/c, mouse, adipose, inhaled or intranasal, 15 mg/kg, Tmax, normal mice; 15 mg/kg i.t.
reported-metric: Tmax (h)
Return type: number; implicit unit h.

Q. For the compound COc1ccc2cc1Oc1ccc(cc1)C[C@H]1c3cc(c(OC)cc3CCN1C)Oc1c(OC)c(OC)cc3c1[C@H](C2)N(C)CC3 , what Tmax is on record?
A. 5.33

---

Test: Tissue distribution of TET after a single i.t. administration in normal and LPS-treated mice
Conditions: BALB/c, mouse, intestine, inhaled or intranasal, 15 mg/kg, AUC(0-∞), normal mice; 15 mg/kg i.t.
Experimental: The different tissue distribution characteristics of TET in normal and pneumonia model mice via i.t. delivery were investigated. Thirty BALB/c mice were randomly divided into ten groups (n = 3 for each group). […] Pharmacokinetic parameters including t1/2, AUC(0-t), AUC(0-∞), and MRT were calculated using WinNonlin 7.0 (Pharsight, CA) by the non-compartmental model. […] Blood clearance (CL) was calculated as the i.v. dose divided by AUCinf. […]
reported-metric: AUC(0-inf)

Q. For the compound COc1ccc2cc1Oc1ccc(cc1)C[C@H]1c3cc(c(OC)cc3CCN1C)Oc1c(OC)c(OC)cc3c1[C@H](C2)N(C)CC3 , what AUC(0-inf) is on record?
A. 1630 µg·h/mL

---

Test: Tissue distribution of TET after a single i.t. administration in normal and LPS-treated mice
Conditions: BALB/c, mouse, spleen, inhaled or intranasal, 15 mg/kg, Cmax, LPS-treated mice; 15 mg/kg i.t.
reported-metric: Cmax (µg/mL)
Return type: number; implicit unit µg/mL.

Q. For the molecule COc1ccc2cc1Oc1ccc(cc1)C[C@H]1c3cc(c(OC)cc3CCN1C)Oc1c(OC)c(OC)cc3c1[C@H](C2)N(C)CC3 , what Cmax is on record?
A. 89.7

---

Assay: Tissue distribution of TET after a single i.t. administration in normal and LPS-treated mice
Settings: BALB/c, mouse, intestine, inhaled or intranasal, 15 mg/kg, MRT, LPS-treated mice; 15 mg/kg i.t.
reported-metric: MRT (h)
Return type: number; implicit unit h.

Q. For the compound COc1ccc2cc1Oc1ccc(cc1)C[C@H]1c3cc(c(OC)cc3CCN1C)Oc1c(OC)c(OC)cc3c1[C@H](C2)N(C)CC3 , what MRT is on record?
A. 42.4
